Molecular target: Muscarinic acetylcholine receptor M1 (Homo sapiens, UniProt P11229); further: assay procedure not described here
Sequence (P11229 whole entry): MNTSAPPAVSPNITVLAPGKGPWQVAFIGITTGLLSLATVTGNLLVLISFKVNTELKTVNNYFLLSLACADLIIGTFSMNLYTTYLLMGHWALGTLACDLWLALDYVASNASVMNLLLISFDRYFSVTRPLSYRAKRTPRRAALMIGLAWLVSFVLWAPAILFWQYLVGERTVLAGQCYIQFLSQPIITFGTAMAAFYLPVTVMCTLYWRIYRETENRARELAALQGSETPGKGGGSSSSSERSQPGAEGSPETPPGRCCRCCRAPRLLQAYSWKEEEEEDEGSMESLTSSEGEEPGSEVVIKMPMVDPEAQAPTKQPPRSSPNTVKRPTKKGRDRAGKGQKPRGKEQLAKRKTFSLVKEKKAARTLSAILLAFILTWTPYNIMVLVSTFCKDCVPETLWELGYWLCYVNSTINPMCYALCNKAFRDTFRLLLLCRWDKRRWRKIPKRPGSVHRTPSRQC
Each entry below carries its recorded AC50.

INSERT INTO measurements (compound, value_type, value_measured) VALUES
  ('CCC(=O)O[C@@H](O[P@](=O)(CCCCc1ccccc1)CC(=O)N1C[C@H](C2CCCCC2)C[C@H]1C(=O)O)C(C)C [FOSINOPRIL]', 'AC50', '> 30 µM'),
  ('CN(C)c1cc(CNCC(C)(C)C)c(O)c2c1C[C@H]1C[C@H]3[C@H](N(C)C)C(O)=C(C(N)=O)C(=O)[C@@]3(O)C(O)=C1C2=O [OMADACYCLINE]', 'AC50', '> 30 µM');

Next compound, AC50 to be filled in.
[in] Supply measured AC50 of CCC(=O)O[C@@H]1CC(=O)O[C@H](C)C/C=C/C=C/[C@H](OC(C)=O)[C@H](C)C[C@H](CC=O)[C@H](O[C@@H]2O[C@H](C)[C@@H](O[C@H]3C[C@@](C)(OC(C)=O)[C@@H](OC(=O)CC)[C@H](C)O3)[C@H](N(C)C)[C@H]2O)[C@H]1OC [MIOCAMYCIN] in your reply.
[out] > 30 µM
